# TARGET_UNDER_TEST: T1, human LILRB1 recombinant protein (human, UniProt Q8NHL6 24-461)
# T1 construct: The ELISA method says only 'LILRB1 recombinant proteins' coated on plates; also called leukocyte immunoglobulin-like receptor subfamily B member 1
# EXPERIMENT_DESCRIPTION: ELISA, B cell supernatant
OBSERVATION_TYPE: OD450 (OD450)
Please reply with the bare figure in OD450 and do not write the unit itself.

Guide cases for OD450, answers given:
binder="mAb of B cell clone 209 (supernatant) (antibody, V domains shown, rabbit) VH: SQSVEESGGDLVKPGGTLTLTCTASRIDLNNYYYISWVRQAPGKGLEWIGVVATDSSVTWYASWAKGQFTISKTSSTTVTLQMTSLTAADTATYFCARGSGAATNGVWWVMGDGMDLWGPGTLVTVSS VL: ELVMTQTPASVSEPVGGTVTIKCQASQSISSYLSWYQQKPGQPPKRLIYKASTLASGVPSRFKGSGSGTEFTLTISGVQCADAATYYCQNNYHSGSSNGGGFAFGGGTEVEIK" measurement=2.18
binder="mAb of B cell clone 98 (supernatant) (antibody, V domains shown, rabbit; also called B1-#98) VH: EQSLEESGGDLVKPEGSLTLTCTASGFSFSSSYWICWVRQAPGKGLEWIACVATGSGTTDYASWAKGRFTMSKTSSTTVTLQMTSLTVADTATYFCARIGAFYSFRLWGPGTLVTISS VL: ELDLTQTPGSVEAAVGGTVTIKCQAGQSIYNYLSWYQQKPGQPPKLLIYSASTLESGVPPRFSGSGSGTEFTLTISDLECADAATYSCQNNYGIGSNYGPGFGGGTEVEIK" measurement=2.01

Now for another entry.
I have this binder here, mAb of B cell clone 160 (supernatant) (antibody, V domains shown, rabbit; also called B1-#160) VH: QEQLVESGGGLVQPEGSLTLTCKASGIDFSSGYWICWVRQAPGKGLELIACIFTSSGTTYYASWAKGRFTISKTSSTTVTLQMTSLTAADTATYFCARDIYSYGMDLWGPGTLVTVSS VL: ELDLTQTPASVSAAVGGTVTIKCQASQSISSSYLAWYQQKPGQPPKLLIYSASSTASGVPSRFKGSGSGTQFTLTISDLECADAATYYCQSTYISSSKYGAVFGGGTELEIK , and I need its recorded OD450.
1.87

Entry source: patent US12723078
